Measured values drawn from ChEMBL document CHEMBL1811781 for this set.

target.system: Serine/threonine-protein kinase Nek2 (Homo sapiens)
Sequence (P51955 whole entry): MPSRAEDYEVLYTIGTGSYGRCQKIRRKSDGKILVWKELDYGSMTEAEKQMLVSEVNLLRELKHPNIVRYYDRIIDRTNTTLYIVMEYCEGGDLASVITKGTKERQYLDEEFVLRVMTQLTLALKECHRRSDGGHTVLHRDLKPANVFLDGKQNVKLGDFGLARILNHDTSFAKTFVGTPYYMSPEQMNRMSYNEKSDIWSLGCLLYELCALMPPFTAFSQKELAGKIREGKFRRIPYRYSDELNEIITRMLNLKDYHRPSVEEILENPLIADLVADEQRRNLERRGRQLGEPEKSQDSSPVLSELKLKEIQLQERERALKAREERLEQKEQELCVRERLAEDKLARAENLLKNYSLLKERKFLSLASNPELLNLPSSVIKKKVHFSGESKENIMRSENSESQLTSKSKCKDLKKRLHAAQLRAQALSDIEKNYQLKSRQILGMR
experiment.description: Inhibition of recombinant NEK2 assessed as 33Pi incorporation after 60 mins by scintillation counting
measurement.label: IC50 (µM)
Answer in µM, number only, no unit symbol.

Prompt line: Given the entry Cc1c(O)c(O)cc2oc3cc(O)cc(O)c3c(=O)c12 [ANOMALIN A] , what IC50 was observed with Serine/threonine-protein kinase Nek2 (Homo sapiens)?
Response line: 83.9

* * *

target.system: Focal adhesion kinase 1 (Homo sapiens)
Sequence (Q05397 whole entry): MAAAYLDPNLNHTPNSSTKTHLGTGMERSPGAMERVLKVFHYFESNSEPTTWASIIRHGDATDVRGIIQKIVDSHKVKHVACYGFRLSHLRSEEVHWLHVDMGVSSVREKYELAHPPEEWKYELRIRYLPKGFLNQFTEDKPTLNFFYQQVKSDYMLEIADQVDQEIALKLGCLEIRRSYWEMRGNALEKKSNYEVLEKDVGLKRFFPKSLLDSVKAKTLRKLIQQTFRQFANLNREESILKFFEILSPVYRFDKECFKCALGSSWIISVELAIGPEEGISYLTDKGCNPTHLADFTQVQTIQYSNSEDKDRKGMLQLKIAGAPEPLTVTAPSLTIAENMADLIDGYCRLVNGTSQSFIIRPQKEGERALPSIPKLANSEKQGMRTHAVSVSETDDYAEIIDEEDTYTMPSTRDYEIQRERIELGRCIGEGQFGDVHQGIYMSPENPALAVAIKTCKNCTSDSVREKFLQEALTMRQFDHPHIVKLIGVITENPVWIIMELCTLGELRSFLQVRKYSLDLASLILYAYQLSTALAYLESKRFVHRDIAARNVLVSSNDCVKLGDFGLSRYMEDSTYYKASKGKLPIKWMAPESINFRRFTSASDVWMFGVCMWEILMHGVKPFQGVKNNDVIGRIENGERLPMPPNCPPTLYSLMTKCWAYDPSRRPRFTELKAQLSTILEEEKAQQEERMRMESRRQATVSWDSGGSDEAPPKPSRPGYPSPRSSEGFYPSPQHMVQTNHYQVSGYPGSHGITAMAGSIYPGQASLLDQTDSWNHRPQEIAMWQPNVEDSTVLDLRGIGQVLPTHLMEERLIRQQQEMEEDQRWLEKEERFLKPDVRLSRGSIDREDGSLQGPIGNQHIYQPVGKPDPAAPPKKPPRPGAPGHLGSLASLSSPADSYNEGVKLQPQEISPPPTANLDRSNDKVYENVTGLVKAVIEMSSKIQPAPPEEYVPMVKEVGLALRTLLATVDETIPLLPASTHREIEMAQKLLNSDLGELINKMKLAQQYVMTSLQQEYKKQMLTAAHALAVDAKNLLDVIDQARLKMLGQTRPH
experiment.description: Inhibition of recombinant FAK assessed as 33Pi incorporation after 60 mins by scintillation counting
measurement.label: IC50 (µM)
API: value field is a number in µM; no unit string.

Prompt line: // fetch Focal adhesion kinase 1 (Homo sapiens) IC50 for Cc1c(O)c(O)cc2oc3cc(O)cc(O)c3c(=O)c12 [ANOMALIN A]
Response line: 15.2

* * *

target.system: Dual specificity mitogen-activated protein kinase kinase 1 (Homo sapiens, UniProt Q02750)
Sequence (Q02750 whole entry): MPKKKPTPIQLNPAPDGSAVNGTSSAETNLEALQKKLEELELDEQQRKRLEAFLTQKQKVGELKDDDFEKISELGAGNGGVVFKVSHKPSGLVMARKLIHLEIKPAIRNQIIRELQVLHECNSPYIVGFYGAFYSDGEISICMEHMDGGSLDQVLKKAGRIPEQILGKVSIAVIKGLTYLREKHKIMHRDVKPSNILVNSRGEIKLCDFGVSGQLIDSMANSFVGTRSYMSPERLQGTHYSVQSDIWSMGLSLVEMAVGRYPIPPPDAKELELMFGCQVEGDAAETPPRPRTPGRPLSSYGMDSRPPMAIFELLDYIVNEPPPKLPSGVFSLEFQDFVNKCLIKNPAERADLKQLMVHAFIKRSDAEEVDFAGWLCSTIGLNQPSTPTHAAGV
experiment.description: Inhibition of wild type MEK1 assessed as 33Pi incorporation after 60 mins by scintillation counting
measurement.label: IC50

1. Cc1c(O)c(O)cc2oc3cc(O)cc(O)c3c(=O)c12: > 100 µM

Please examine the following record next.
Prompt line: Give the reported IC50 for `Cc1cc(O)cc2oc3cc(O)cc(O)c3c(=O)c12` (system: Dual specificity mitogen-activated protein kinase kinase 1 (Homo sapiens, UniProt Q02750)).
Response line: > 100 µM
